Each recorded value in this set is attributed to PubChem BioAssay.

METHOD_DESCRIPTION: inhibition of 3D7 malaria parasite growth – strain 3D7 (AID 2306);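 further: 0% = DMSO wells and 100% = chloroquine plus artemisinin control wells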
TEST_CONDITIONS: P. falciparum 3D7 erythrocytic growth, LDH absorbance, 72 h; at 2 µM; active compounds read high
VALUE_KIND: growth inhibition (%)
Your answer is read as %, so omit the unit and give the number.

# count of solved cases: 6
# MOLECULE, VALUE_KIND, U, VALUE_REPORTED
data = [
    ("Cc1cccc(C(=O)Nc2ccnc(N3CCC(N(C)Cc4ccc(C#N)cc4)CC3)c2)c1", "growth inhibition", "%", 94),
    ("CS(=O)(=O)c1ccc(-c2cncc(Cl)n2)cc1", "growth inhibition", "%", 100),
    ("O=C(NCc1ccc(F)cc1)Nc1cccc(-c2ccc(-c3nc4ccccc4[nH]3)cc2)c1", "growth inhibition", "%", 101),
    ("COc1cccc(C=NNc2cc(C)nc3c(OC)cccc23)c1", "growth inhibition", "%", 99),
    ("COc1cc(CCCOc2c(N)nc(N)nc2N)cc(OC)c1OC", "growth inhibition", "%", 88),
    ("CCc1cn2c3c(cc(C(=O)N[C@@H](Cc4ccccc4)[C@H](O)CN[C@@H](C)CC)cc13)N(C)S(=O)(=O)CC2", "growth inhibition", "%", 99),
]

Switching to the query record.
Query block: Return reported growth inhibition. Input molecule: "COc1cccc2c1CCN(CCN1CCC(CNC(=O)c3ccc(-c4ccc(C#N)cc4)cc3)CC1)C2"
Result block: 99

====

METHOD_DESCRIPTION: HepG2 cytotoxicity, primary screen, cytotoxicity control for P. falciparum antimalarial project, cell-based, ATP luminescence (AID 2303);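 further: 0% = DMSO wells and 100% = digitonin-killed cells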
TEST_CONDITIONS: HepG2 viability, 24-48 h, at 10 µM, active compounds read high
Measured inhibition of individual entries
Respond with the bare value in %.

Consider the following illustrative entries.
# MOLECULE, inhibition [%]
rows = [
    ("COc1cc2nc(C)nc(Nc3ccc(Cc4ccccc4)cc3)c2cc1OC", 16),
    ("CC(C)C(C(=O)n1ncc2c3c(N)nc(N)nc3ccc21)C(C)C", 67),
    ("CN1CCCC(CN2CCN(Cc3cccc(-c4ccc(-c5nc6ccccc6[nH]5)cc4)c3)CC2)C1 (stereo not given)", 73),
    ("CCCCCCN1CCC(NCc2cccc(C(F)(F)F)c2)CC1", 18),
]

// switching to the query molecule
Query block: Supply reported inhibition belonging to this molecule: N#Cc1ccc(CN2CCC(Oc3ccc(NC(=O)c4cccs4)cc3Cl)C2)cc1 (stereo not given)
Result block: 31

====

METHOD_DESCRIPTION: inhibition of 3D7 malaria parasite growth – strain 3D7 (AID 2306);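 further: 0% = DMSO wells and 100% = chloroquine plus artemisinin control wells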
TEST_CONDITIONS: P. falciparum 3D7 erythrocytic growth, LDH absorbance, 72 h; at 2 µM; active compounds read high
VALUE_KIND: growth inhibition (%)
Only the number, expressed in %, is required.

Check out these entries, answers already filled in.
# COMPOUND, U, VALUE_REPORTED
measured = [
    ("CCC(C)NS(=O)(=O)c1ccc2nc(Nc3cccc(SC)c3)n(C(C)C(C)C)c2c1 (centres undefined)", "%", 94),
    ("CCCC(C)c1ccc(N2C(N)=NC(N)=NC2(C)C)cc1 (centres undefined)", "%", 90),
    ("COc1cc(NC(=O)N2CCOC(CCN3CCC(c4ccccc4)CC3)(c3ccc(Cl)c(Cl)c3)C2)cc(OC)c1OC (centres undefined)", "%", 93),
    ("CS(=O)(=O)NCCCNCc1ccc(-c2ccc(-c3nc4ccc(C(F)(F)F)cc4[nH]3)s2)cc1", "%", 99),
    ("CC(C)C[C@H](NC(=O)c1ccc(OCCN2CCOCC2)cc1)C(=O)N[C@H](/C=N/NC(=O)c1ccccc1)CCc1ccccc1", "%", 98),
]

Query block: Retrieve growth inhibition measured for CCC(=O)N(c1ccccc1)C1CCN(CCCC(NC(=O)Nc2cc(C(F)(F)F)cc(C(F)(F)F)c2)c2ccc(Cl)c(Cl)c2)CC1 (centres undefined) and print it.
Result block: 99

Query block: Give a short answer stating reported growth inhibition for "NC1=NC2(CCCCC2)N(OCCCOc2cc(Cl)c(Cl)cc2Cl)C(N)=N1" .
Result block: 94

Query block: Give the value of growth inhibition reported for the following: "COc1ccc2nccc([C@@H](O)CN3CCC(NCCOc4ccccc4[N+](=O)[O-])CC3)c2c1"
Result block: 100

Query block: State, in one line, measured growth inhibition of "C#CCNCc1ccc(-c2ccc(-c3nc4ccc(C(F)(F)F)cc4[nH]3)s2)cc1"
Result block: 98

====

Quick reference for inhibition among some molecules
TARGET: L-lactate dehydrogenase (Plasmodium falciparum (isolate CDC / Honduras)) (UniProt Q27743)
Sequence (Q27743 whole entry, looked up): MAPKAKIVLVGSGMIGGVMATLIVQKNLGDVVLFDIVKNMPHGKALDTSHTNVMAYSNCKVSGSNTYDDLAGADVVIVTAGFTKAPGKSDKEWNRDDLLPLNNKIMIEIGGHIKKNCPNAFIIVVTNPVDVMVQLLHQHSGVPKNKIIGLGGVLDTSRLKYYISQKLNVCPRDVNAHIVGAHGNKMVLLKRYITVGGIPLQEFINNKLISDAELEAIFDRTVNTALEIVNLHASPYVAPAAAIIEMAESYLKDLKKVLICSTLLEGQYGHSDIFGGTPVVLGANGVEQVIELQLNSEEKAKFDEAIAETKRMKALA
METHOD_DESCRIPTION: PfLDH activity inhibition – cell lysate, 3D7 strain, counter-screen for P. falciparum growth inhibition project (AID 2304);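 further: 0% = vehicle and 100% = reference inhibitor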
TEST_CONDITIONS: P. falciparum 3D7 crude extract, LDH APAD/NBT absorbance; at 2 µM; active compounds read high
Write down the numeric answer in % and omit the unit.

Would you please look over these solved cases?
# MOLECULE, U, inhibition
rows = [
    ("CCOc1cc(C)ccc1C1CCN(CCCCNC(=O)c2ccc(-c3ccc(Cl)cn3)cc2)CC1", "%", -6),
    ("COc1ccc(-c2cccc(CNC3CCN(C)CC3)c2)cc1S(=O)(=O)NCc1ccccc1", "%", -5),
    ("CCN(CC)CCNC(=O)c1ccc(NC(=O)c2cn(-c3ccccc3)nc2-c2cccs2)cc1", "%", -1),
    ("N=c1c2c(n(Cc3cccc(Cl)c3)c3c1CCC3)CCCC2", "%", -1),
    ("Cc1noc(C)c1-c1cccc(CNCc2cccc(-c3ccc(-c4nc5c(C)cccc5[nH]4)cc3)c2)c1", "%", 6),
]

Query block: Let me know recorded inhibition for COc1cc(NC(=O)N2CCOC(CCN3CCC4(CCc5ccccc54)CC3)(c3ccc(Cl)c(Cl)c3)C2)cc(OC)c1 (stereo not drawn) , thanks.
Result block: 3

Query block: Please report inhibition for the following molecule: "COc1ccc(S(=O)(=O)N(CC(=O)NN=C(C)c2cccs2)c2cc(C)cc(C)c2)cc1OC"
Result block: -1

Query block: Write down inhibition measured for item "O=c1cc(NCCCN(Cc2cc3c(Cl)cc(Cl)cc3[nH]2)Cc2cc3c(Cl)cc(Cl)cc3[nH]2)[nH]c2ccccc12"
Result block: -6

Query block: Using the record for Cc1cc(N(C)C2CCN(C)C2)nc(Nc2ccc(Cl)cc2)n1 (stereo not drawn) , state its measured inhibition.
Result block: 0

Query block: Indicate the recorded inhibition value for this molecule: "COc1ccc(NC(=O)c2ccc3[nH]c(-c4ccc(Cl)cc4)cc3c2)cc1OCCN(C)C"
Result block: 2

Query block: Give the reported value of inhibition for this record: "COc1ccc2nccc([C@@H](O)CN3CCC(NC(=O)/C=C/c4ccnc5ccccc45)CC3)c2c1"
Result block: -1

Query block: Quote inhibition reported for "CCOc1ccc(C(=O)Nc2cc(Br)c3c(c2)CNCC3)cc1C#N" please.
Result block: -6

Query block: Query inhibition for "O=C(/C=C/c1ccc(Cl)c(Cl)c1)NCCCCCN1CCC(c2c[nH]c3ccccc23)CC1"
Result block: -2

Query block: Write down inhibition measured for item COc1ccc(S(=O)(=O)NC2CCN(CCNC(=O)Nc3cc(C)nc4ccccc34)C2)cc1 (stereo not drawn)
Result block: 1

Query block: Fill in inhibition for record "Cc1cccc2[nH]c(-c3ccc(-c4cccc(NC(=O)c5cnccc5C(F)(F)F)c4)cc3)nc12"
Result block: 0

Query block: Please list inhibition recorded for the molecule CCCC(=O)NC(c1cccs1)c1cc(Cl)c2cccnc2c1O (stereo not drawn)
Result block: -4

Query block: Provide inhibition value for the following molecule: "Cn1c(-c2ccccc2)cc2c3c(=O)cc(C(F)(F)F)[nH]c3ccc21"
Result block: -1

Query block: Read off the recorded inhibition for COc1ccc(CC2(c3ccc(F)cc3)N=C(N)N(CCCc3ccc(F)c(F)c3)C2=O)cc1 (stereo not drawn)
Result block: 5

Query block: Hello, please tell me recorded inhibition for this one: "COCCCNc1nc2cc(OC)c(OC)cc2c2nc(-c3ccccc3)nn12"
Result block: -6

Query block: Give a short answer stating reported inhibition for CN1CCc2cc(CN3C[C@]4(C)C[C@H]3CC(C)(C)C4)c(O)cc2C(c2ccccc2)C1 (stereo partly drawn) .
Result block: -3

Query block: Item "CCN(CC)CCN(Cc1ccc(-c2ccc(C(F)(F)F)cc2)cc1)C(=O)Cn1c(CCc2c(F)ccc(F)c2F)nc(=O)c2ccccc21" : provide inhibition
Result block: -6

Query block: Return reported inhibition. Input molecule: "COc1ccc(NC(=O)Nc2nc(-c3ccc(Cl)c(C)c3)cs2)cc1N1CCN(C)CC1"
Result block: 0

====

METHOD_DESCRIPTION: antimalarial activity against Dd2 strain (AID 2302);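 further: 0% = DMSO untreated growth and 100% = chloroquine plus artemisinin killed control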
TEST_CONDITIONS: P. falciparum Dd2 in RBCs, LDH growth readout, 72 h; at 2 µM
The source made the active and inactive calls.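 The calls were made as follows: active = growth inhibition above 50% at the single 2 µM test dose, taken to imply half-maximal potency below 2 µM; inactive = the rest.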
Write down the outcome that applies. Available outcomes: active, inactive

Examples with answers:
# COMPOUND, CLASS_ASSIGNMENT
data = [
    ("NC1=NC(c2ccccc2)N(c2ccc(Cl)c(Cl)c2)C(N)=N1 (stereo not given)", "inactive"),
    ("COc1ccccc1CCNC(=O)c1cnc(N2CCN(c3ccncc3)CC2)c(Cl)c1", "active"),
    ("CCCN(CCC)S(=O)(=O)c1ccc(C(=O)N2CCC(C(=O)OCC)CC2)cc1", "inactive"),
    ("O=C(Cc1cnc[nH]1)Nc1cccc(-c2ccc(-c3nc4ccc(C(F)(F)F)cc4[nH]3)cc2)c1", "active"),
    ("Cc1noc(-c2ccc(N3CCC(C(=O)N4CCN(C(C)C)CC4)CC3)cc2)n1", "inactive"),
]

Query block: Each compound tested received a call. Report the one for "N#Cc1cc(C(=O)c2cc(Cl)ccc2O)cn(-c2cc(Cl)cc(Cl)c2)c1=O" .
Result block: inactive
